Source of measurements: PubChem BioAssay (NCI)

Recorded measurements of TGI, one per entry
Tested on: RXF 393 renal
assay: NCI tumour cell line growth inhibition, 48 h
Where a SMILES comes first, the peptide text is derived from it. The star is where a group is joined. Boc = CC(C)(C)OC(=O)*; OSu = O=C1CCC(=O)N1O*

[
  {
    "molecule": "CC1=Nc2nc(Cl)cn2C(=O)C1(Cl)Cl",
    "TGI": "> 10 µM"
  },
  {
    "molecule": "O=C1CCC2(CC1CC(Sc1ccccc1)Sc1ccccc1)OCCO2 (stereo unspecified)",
    "TGI": "> 100 µM"
  },
  {
    "molecule": "CCCCCCCCOC1C(O)C(O)C(O)C(O)C12CO2 (stereo unspecified)",
    "TGI": "> 100 µM"
  },
  {
    "molecule": "COC(=O)N(C(=O)OC)C(C(=O)O)C(C)C (stereo unspecified)",
    "TGI": "> 100 µM"
  },
  {
    "molecule": "CCOc1ccc2nc(SCc3nc4n(n3)S(=O)(=O)c3ccccc3N4C)sc2c1",
    "TGI": "97.3 µM"
  },
  {
    "molecule": "CCCCc1ccc(Nc2nc3c(ncn3C3CC(O)C(CN=[N+]=[N-])O3)c(=O)[nH]2)cc1 (stereo unspecified)",
    "TGI": "> 100 µM"
  },
  {
    "molecule": "Cc1ccc(N=N/C(=N\\NC(=O)c2ccc(C)cc2)c2ccc(N(CCC#N)CCC#N)cc2C)cc1",
    "TGI": "> 100 µM"
  },
  {
    "molecule": "CC(=O)[CH-]C(C)=O.CC(=O)[CH-]C(C)=O.[CH2-]CCC.[CH2-]CCC.[Sn+4]",
    "TGI": "0.292 µM"
  },
  {
    "molecule": "CC(NC(=O)C(NC(=O)OC(C)(C)C)C(C)C)C(=O)NCC(=O)ON1C(=O)CCC1=O (stereo not drawn) (Boc-Val-Ala-Gly-OSu; configuration not given here)",
    "TGI": "> 100 µM"
  },
  {
    "molecule": "COC(=O)CCC(=O)NC1=C(Nc2ccc(OC)cc2)C(=O)c2ccccc2C1=O",
    "TGI": "67 µM"
  },
  {
    "molecule": "Cc1nc(Nc2ccc(Cl)cc2)sc1C(=O)NNc1ccc([N+](=O)[O-])cc1[N+](=O)[O-]",
    "TGI": "30.7 µM"
  }
]

---

Test system: OVCAR-4 ovarian
assay: NCI tumour cell line growth inhibition, 48 h

[
  {
    "molecule": "COCCCNC(=O)C1C(=O)N(CCCOC)C(=O)/C1=N\\N (stereo unspecified)",
    "TGI": "> 100 µM"
  },
  {
    "molecule": "COc1ccc(S(=O)(=O)Nc2ccccc2C(=O)O)cc1",
    "TGI": "> 100 µM"
  },
  {
    "molecule": "CN(C)CC(C)(C)/C(=N\\Nc1ccccc1)c1ccccc1",
    "TGI": "> 100 µM"
  },
  {
    "molecule": "CC[N+](CC)=c1sc2c(s1)C(c1ccc(Cl)cc1)Oc1ccc(Cl)cc1-2 (stereo unspecified)",
    "TGI": "12.7 µM"
  },
  {
    "molecule": "OC(c1cc2ccccc2o1)c1cc2ccccc2s1 (stereo unspecified)",
    "TGI": "> 10 µM"
  },
  {
    "molecule": "COC(=O)N(C(=O)OC)C(C(=O)O)C(C)C (stereo unspecified)",
    "TGI": "> 100 µM"
  },
  {
    "molecule": "OCc1ccc(-c2ccc(-c3ccc(CO)o3)[se]2)o1",
    "TGI": "> 100 µM"
  },
  {
    "molecule": "CN(C)c1ccc(C(=C(c2ccc(N(C)C)cc2)c2ccc(N(C)C)cc2)c2ccc(N(C)C)cc2)cc1",
    "TGI": "> 100 µM"
  },
  {
    "molecule": "O=C(/C=C/c1ccc(O)cc1)c1ccc2c(c1)OCO2",
    "TGI": "48 µM"
  },
  {
    "molecule": "C#Cc1cccc(N2C(=O)CCC2=O)c1",
    "TGI": "20.5 µM"
  },
  {
    "molecule": "CC(=O)OCCOCn1c2c(c(=S)[nH]c1=O)CCC2",
    "TGI": "> 100 µM"
  },
  {
    "molecule": "COc1cc([C@@H]2c3cc4c(cc3C(N)C3COC(=O)[C@@H]32)OCO4)cc(OC)c1O (stereo partly specified)",
    "TGI": "> 100 µM"
  },
  {
    "molecule": "CCN(CC)CC1CCCCN1CC(=O)N1c2ccccc2NC(=O)CC1C (stereo unspecified)",
    "TGI": "> 100 µM"
  },
  {
    "molecule": "COC(=O)[C@@H]1[C@@H](c2cccc(Cl)c2)[C@H](C(=O)OC)C2(C[C@@]1(C)O)NCCS2 (stereo partly specified)",
    "TGI": "> 100 µM"
  },
  {
    "molecule": "COc1ccc2nc3ccc(OC)cc3c(SCCO)c2c1",
    "TGI": "> 100 µM"
  },
  {
    "molecule": "CCCNNC(=O)/C=C/c1ccc(CNCCc2c(C)[nH]c3ccccc23)cc1",
    "TGI": "6.45 µM"
  }
]
